- systemName: human AR (Homo sapiens, UniProt P10275)
- Construct: expressed in transfected cells; host or cells: COS-1
- Sequence (P10275 1-920): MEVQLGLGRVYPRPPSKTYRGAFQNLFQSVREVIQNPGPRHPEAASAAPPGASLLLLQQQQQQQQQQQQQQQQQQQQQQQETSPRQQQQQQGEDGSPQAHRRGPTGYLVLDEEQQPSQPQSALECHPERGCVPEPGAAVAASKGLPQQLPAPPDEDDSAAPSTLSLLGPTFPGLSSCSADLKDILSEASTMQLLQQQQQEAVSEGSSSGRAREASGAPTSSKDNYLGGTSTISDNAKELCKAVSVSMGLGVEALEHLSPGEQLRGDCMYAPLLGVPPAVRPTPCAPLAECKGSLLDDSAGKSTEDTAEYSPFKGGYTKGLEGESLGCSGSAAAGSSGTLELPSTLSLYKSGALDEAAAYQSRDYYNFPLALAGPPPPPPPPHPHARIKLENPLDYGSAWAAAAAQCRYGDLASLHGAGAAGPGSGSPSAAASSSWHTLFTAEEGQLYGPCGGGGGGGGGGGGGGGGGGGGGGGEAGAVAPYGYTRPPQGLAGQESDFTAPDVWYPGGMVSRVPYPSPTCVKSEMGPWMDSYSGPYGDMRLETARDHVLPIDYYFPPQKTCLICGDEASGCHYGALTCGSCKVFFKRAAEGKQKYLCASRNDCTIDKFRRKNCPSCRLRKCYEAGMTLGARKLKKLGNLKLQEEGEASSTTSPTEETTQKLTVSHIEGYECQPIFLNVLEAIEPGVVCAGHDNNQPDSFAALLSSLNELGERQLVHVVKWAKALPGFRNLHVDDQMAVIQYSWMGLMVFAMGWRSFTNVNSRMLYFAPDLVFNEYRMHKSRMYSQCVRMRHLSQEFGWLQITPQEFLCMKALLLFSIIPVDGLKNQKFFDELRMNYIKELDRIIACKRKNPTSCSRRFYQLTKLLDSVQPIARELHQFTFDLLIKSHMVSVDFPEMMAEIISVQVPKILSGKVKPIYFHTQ
- experimentNotes: Competitive AR binding assay against [3H]-R1881 in transiently transfected COS-1 cells
- experimentalContext: Table 1; compound 13.4 μM; [3H]-R1881 1.34 nM; complete inhibition equals 100%; read-out: Inhibition of [3H]-R1881 binding at 1.34 nM ± S.D.
Parameter inhibition at 13.4 µM: see the listing below.

molecule: CCCCN1C(CCCc2ccccc2)=NOC1(C)Cc1ccccc1 (stereo not drawn) [Example 59ab]
inhibition at 13.4 µM: 39.1%

molecule: CCCCN1C(CCc2ccccc2)=NOC1(C)Cc1ccccc1 (stereo not drawn) [Example 57ab]
inhibition at 13.4 µM: 48.7%

molecule: COc1ccc(C2=NOC(C)(Cc3ccccc3)C2)cc1 (stereo not drawn)
inhibition at 13.4 µM: 49.6%
